biological target: Transporter, Dopamine (DAT) (Homo sapiens, UniProt Q01959); construct: host or cells: CHO-S cells; assay: Radioligand binding, Transporter, Dopamine (DAT) (Eurofin Discovery 220320); conditions: 10 nM compound
Sequence (Q01959 whole entry): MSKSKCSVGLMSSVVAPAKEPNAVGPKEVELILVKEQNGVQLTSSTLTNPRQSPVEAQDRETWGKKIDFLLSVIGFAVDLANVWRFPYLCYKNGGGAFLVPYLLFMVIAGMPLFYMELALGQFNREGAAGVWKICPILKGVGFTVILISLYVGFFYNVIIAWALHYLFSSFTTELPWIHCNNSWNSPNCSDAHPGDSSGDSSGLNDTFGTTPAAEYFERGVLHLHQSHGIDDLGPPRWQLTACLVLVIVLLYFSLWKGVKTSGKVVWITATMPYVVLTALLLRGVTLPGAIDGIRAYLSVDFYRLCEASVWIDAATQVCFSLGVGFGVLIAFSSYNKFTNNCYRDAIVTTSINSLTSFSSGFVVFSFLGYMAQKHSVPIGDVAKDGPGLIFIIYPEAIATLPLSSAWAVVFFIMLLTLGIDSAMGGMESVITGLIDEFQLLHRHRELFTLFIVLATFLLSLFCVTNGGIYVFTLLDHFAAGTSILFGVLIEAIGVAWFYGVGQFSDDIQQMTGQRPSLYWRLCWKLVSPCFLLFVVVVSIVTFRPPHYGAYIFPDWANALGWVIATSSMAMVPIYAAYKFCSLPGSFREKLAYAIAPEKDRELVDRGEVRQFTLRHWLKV

>  <COMPOUND>
[2H]C1([2H])NCC(c2ccc(Cl)c(Cl)c2)c2ccc(-c3ccc4ncnn4c3)cc21 (single isomer, unassigned) [Compound 12B]

>  <UNITS_TEXT>
%

>  <DAT, %inhibition 10 nM>
0

$$$$
>  <COMPOUND>
[2H]C1([2H])NCc2cc(-c3ccc4ncnn4c3)ccc2C1([2H])c1ccc(Cl)c(Cl)c1 (single isomer, unassigned) [Compound 16A]

>  <UNITS_TEXT>
%

>  <DAT, %inhibition 10 nM>
47

$$$$
>  <COMPOUND>
[2H]C1([2H])NC([2H])([2H])C([2H])(c2ccc(Cl)c(Cl)c2)c2ccc(-c3ccc4ncnn4c3)cc21 (single isomer, unassigned) [Compound 8B]

>  <UNITS_TEXT>
%

>  <DAT, %inhibition 10 nM>
4

$$$$
>  <COMPOUND>
[2H]C1([2H])NC([2H])([2H])C([2H])(c2ccc(Cl)c(Cl)c2)c2ccc(-c3ccc4ncnn4c3)cc21 (single isomer, unassigned) [Compound 8A]

>  <UNITS_TEXT>
%

>  <DAT, %inhibition 10 nM>
44

$$$$
>  <COMPOUND>
[2H]C1([2H])NCC(c2ccc(Cl)c(Cl)c2)c2ccc(-c3ccc4ncnn4c3)cc21 (single isomer, unassigned) [Compound 12A]

>  <UNITS_TEXT>
%

>  <DAT, %inhibition 10 nM>
53

$$$$
>  <COMPOUND>
[2H]C1([2H])NCc2cc(-c3ccc4ncnn4c3)ccc2C1([2H])c1ccc(Cl)c(Cl)c1 (single isomer, unassigned) [Compound 16B]

>  <UNITS_TEXT>
%

>  <DAT, %inhibition 10 nM>
-2

$$$$
